Tested on: Klebsiella aerogenes DSM 30053
Experiment: growth (OD595) fold change vs plate DMSO controls (fold change (ratio)); higher = more growth
Conditions: 20 µM; incubation time: 27 h, anaerobic, 37 °C
Counter-ions that a name gives are not always drawn.
Observable: growth
# output: bare number, no unit

Some molecules with known growth results, for comparison:
molecule=CCC(CC)Nc1c([N+](=O)[O-])cc(C)c(C)c1[N+](=O)[O-] experimental_value=0.983
molecule=Oc1ccc(Cl)cc1Cc1cc(Cl)ccc1O experimental_value=0.898
molecule=CN1C[C@H](CNC(=O)OCc2ccccc2)C[C@@H]2c3cccc4c3c(cn4C)C[C@H]21 experimental_value=1.03
molecule=COc1cc(C)c(C(=O)c2c(OC)ccc(Br)c2C)c(OC)c1OC experimental_value=1.04

Report value only: growth, Klebsiella aerogenes DSM 30053, CCNCC(O)c1cccc(O)c1 (stereo not given) [Etilefrine hydrochloride] 0.996

Data credit: the supplement of paper PMC12494721
